- target or system: rabbit serum PON1 (Oryctolagus cuniculus, UniProt P27170)
- Construct: PON 1 was purified further by pooling the fractions with highest arylesterase activity from a second DEAE column; from tissue; host or cells: rabbit serum
- Sequence (P27170 whole entry Y185T): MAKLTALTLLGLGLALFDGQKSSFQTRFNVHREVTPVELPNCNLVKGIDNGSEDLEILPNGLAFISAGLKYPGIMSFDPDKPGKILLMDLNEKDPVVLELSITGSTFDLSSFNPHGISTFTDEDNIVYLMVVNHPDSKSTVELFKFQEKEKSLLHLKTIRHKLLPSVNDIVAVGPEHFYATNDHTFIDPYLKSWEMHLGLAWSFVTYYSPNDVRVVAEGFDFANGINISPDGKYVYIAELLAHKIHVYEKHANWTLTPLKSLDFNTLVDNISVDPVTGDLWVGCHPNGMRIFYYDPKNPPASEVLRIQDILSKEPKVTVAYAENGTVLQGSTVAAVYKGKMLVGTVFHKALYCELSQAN
- assay text: Hydrolytic activity of purified rabbit serum PON1 with paraoxon, aromatic esters and lactones
- Assay type: biochemical
- applied conditions: 25° C.
recorded metric: PON1 (rate of hydrolysis of substrate) (µmol/min/mg)
Express it in µmol/min/mg; write the number only.

molecule	measure unit	PON1 (rate of hydrolysis of substrate)
CCCCC1CCCC(=O)O1 (stereo not shown)	µmol/min/mg	142
CC(=O)Oc1ccccc1 [Phenyl Acetate]	µmol/min/mg	768.7
O=C1Oc2ccccc2C1Br (stereo not shown)	µmol/min/mg	270.1

Just so you know, measured PON1 (rate of hydrolysis of substrate) for CC1CCCC(=O)O1 (stereo not shown) came out at 207

====

Recorded PON3 (rate of hydrolysis of substrate) for the following compounds
- target or system: rabbit serum PON3 (Oryctolagus cuniculus, UniProt Q9BGN0)
- Construct: from tissue; host or cells: rabbit serum
- Sequence (Q9BGN0 2-354 limits assumed): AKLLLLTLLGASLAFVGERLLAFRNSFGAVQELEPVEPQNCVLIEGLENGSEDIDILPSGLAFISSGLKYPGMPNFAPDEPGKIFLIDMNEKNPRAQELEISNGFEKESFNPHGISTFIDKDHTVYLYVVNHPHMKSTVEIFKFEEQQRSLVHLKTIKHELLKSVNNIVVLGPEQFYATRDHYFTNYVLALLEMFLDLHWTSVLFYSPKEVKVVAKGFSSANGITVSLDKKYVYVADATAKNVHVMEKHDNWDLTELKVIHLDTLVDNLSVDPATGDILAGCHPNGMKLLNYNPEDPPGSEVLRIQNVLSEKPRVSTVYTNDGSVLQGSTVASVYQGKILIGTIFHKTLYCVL
- assay text: Hydrolytic activity of purified rabbit serum PON3 with paraoxon, aromatic esters and lactones
- Type: biochemical
- applied conditions: purified rabbit serum PON3; 25° C.

compound	target or system	recorded metric	observed
O=C1Oc2ccccc2C1Br (stereo not drawn) [α-Br-2-Coumaronone]	rabbit serum PON3 (Oryctolagus cuniculus, UniProt Q9BGN0)	PON3 (rate of hydrolysis of substrate)	2.8 µmol/min/mg
CC1CCC(=O)O1 (stereo not shown) [γ-Valerolactone]	rabbit serum PON3 (Oryctolagus cuniculus, UniProt Q9BGN0)	PON3 (rate of hydrolysis of substrate)	3.0 µmol/min/mg
CCOP(=O)(OCC)Oc1ccc([N+](=O)[O-])cc1 [Paraoxon]	rabbit serum PON3 (Oryctolagus cuniculus, UniProt Q9BGN0)	PON3 (rate of hydrolysis of substrate)	<0.0075^1 μmol/min/mg

Consider C=C1CCC(=O)O1 [γ-methylene-γ-butyrolactone] . Its measured PON3 (rate of hydrolysis of substrate) is 12 µmol/min/mg

====

- target or system: rabbit serum PON1 (Oryctolagus cuniculus)
- Construct: PON 1 was purified further by pooling the fractions with highest arylesterase activity from a second DEAE column; from tissue; host or cells: rabbit serum
- assay text: Hydrolytic activity of purified rabbit serum PON1 with paraoxon, aromatic esters and lactones
- Assay type: biochemical
- applied conditions: 25° C.
Below, each entry is listed with its recorded PON1 (rate of hydrolysis of substrate).
State just the number; it will be interpreted in µmol/min/mg.

compound	target or system	PON1 (rate of hydrolysis of substrate) [µmol/min/mg]
CCCCCCCC1CCC(=O)O1 (stereo not drawn)	rabbit serum PON1 (Oryctolagus cuniculus)	87.4
CCCCCCC1CCC(=O)O1 (stereo not drawn)	rabbit serum PON1 (Oryctolagus cuniculus)	92

So, O=C1CCC(c2ccccc2)O1 (stereo not drawn) ? Its PON1 (rate of hydrolysis of substrate) was 203

Reported PON1 (rate of hydrolysis of substrate) of CCCCCC1CCCC(=O)O1 (stereo not drawn) : 134.8

get_value(item= CCCCCCCC1CCCC(=O)O1 (stereo not drawn) , readout=PON1 (rate of hydrolysis of substrate)) returns 179.4

// PON1 (rate of hydrolysis of substrate) value for `C=C1CCC(=O)O1` : 622

Consider `CC1=CCC(=O)O1` . Its measured PON1 (rate of hydrolysis of substrate) is 175.1

Item: `O=C1Cc2ccccc2O1` | PON1 (rate of hydrolysis of substrate): 136.6

Record CCCCC1OC(=O)CC1C (stereo not drawn) , field PON1 (rate of hydrolysis of substrate): 34.8

From: patent US6916472B2
